Just for reference, patent US10766864B2 is where these values come from.

Biological target: mu opioid receptor (MOR) (Homo sapiens (Human), UniProt P35372)
Assay: Competitive radioligand binding at MOR ([3H] Naloxone)
Catalogue of IC50 readings, one per entry.
measure: IC50

compound: COCCOc1c(OC)ccc2c1[C@@]13CCCC[C@H]1[C@@H](C2)N(C)CC3
measure: IC50
measValue: 100 to 1000 nM
//
compound: COCCN1CC[C@]23CC(=O)CC[C@H]2[C@H]1Cc1ccc(O)cc13
measure: IC50
measValue: 0.1 to 10 nM
//
compound: CN1CC[C@]23CCCC[C@H]2[C@H]1Cc1ccc(N)cc13
measure: IC50
measValue: 100 to 1000 nM
//
compound: Oc1ccc2c(c1)[C@@]13CCCC[C@H]1[C@@H](C2)N(CC1CCO1)CC3 (stereo partly drawn)
measure: IC50
measValue: 0.1 to 10 nM
//
compound: COc1ccc(NC(=O)Nc2ccc3c(c2)[C@@]24CCCC[C@H]2[C@@H](C3)N(C)CC4)cc1
measure: IC50
measValue: 10 to 100 nM
//
compound: COCCOCCOCCN1CC[C@]23CC(=O)CC[C@H]2[C@H]1Cc1ccc(O)cc13
measure: IC50
measValue: 100 to 1000 nM
//
compound: CN1CC[C@]23CCCC[C@H]2[C@H]1Cc1ccc(Nc2ccccn2)cc13
measure: IC50
measValue: 100 to 1000 nM
//
compound: CN1CC[C@]23CCCC[C@H]2[C@H]1Cc1ccc(-c2cn[nH]c2)cc13
measure: IC50
measValue: 10 to 100 nM
//
compound: CN1CC[C@]23Cc4nc(N)sc4C[C@H]2[C@H]1Cc1ccc(O)cc13
measure: IC50
measValue: 10 to 100 nM
//
compound: COCCOCCOCC(=O)Nc1ccc2c(c1)[C@@]13CCCC[C@H]1[C@@H](C2)N(C)CC3
measure: IC50
measValue: 100 to 1000 nM
//
compound: CN1CC[C@]23CCCC[C@H]2[C@H]1Cc1ccc(Nc2ccncn2)cc13
measure: IC50
measValue: 100 to 1000 nM
//
compound: COCCOCCN1CC[C@]23CCCC[C@H]2[C@H]1Cc1ccc(Nc2cccnc2)cc13
measure: IC50
measValue: 100 to 1000 nM
//
compound: COCCNC(=O)Oc1ccc2c(c1)[C@@]13CCCC[C@H]1[C@@H](C2)N(C)CC3
measure: IC50
measValue: 100 to 1000 nM
//
compound: CN1CC[C@]23CCCC[C@H]2[C@H]1Cc1ccc(-n2ccnc2)cc13
measure: IC50
measValue: 10 to 100 nM
//
compound: COCCN1CC[C@]23CCCC[C@H]2[C@H]1Cc1ccc(OC)cc13
measure: IC50
measValue: 100 to 1000 nM

====

Catalogue of pIC50 readings, one per entry.
Biological target: NMDA receptor
Test: Competitive radioligand binding at NMDA receptor ([3H] MK801), rat forebrain membranes
Conditions: 0.2 nM [3H] MK801, reflects free base activity
pIC50: −log10 of the molar value.

molecule: COCCNC(=O)Oc1ccc2c(c1)[C@@]13CCCC[C@H]1[C@@H](C2)N(C)CC3 [Compound 18]
pIC50: 5.00 to 6.00
--
molecule: CN1CC[C@]23CCCC[C@H]2[C@H]1Cc1ccc(Nc2ccccn2)cc13 [Compound 63]
pIC50: 6.00 to 7.00
--
molecule: CN1CC[C@]23CCCC[C@H]2[C@H]1Cc1ccc(-n2ccnc2)cc13 [Compound 62, 3-(1H-imidazol-1-yl)-17-methylmorphinan]
pIC50: 6.00 to 7.00
--
molecule: COCCOCCOCCNC(=O)c1ccc2c(c1)[C@@]13CCCC[C@H]1[C@@H](C2)N(C)CC3 [Compound 41]
pIC50: < 5.00
--
molecule: COCCOCCOCCOCCOCCNc1nc2ccc3c(c2s1)[C@@]12CCCC[C@H]1[C@@H](C3)N(C)CC2 [Compound 77]
pIC50: < 5.00
